From: patent US20240197596A1

- assay.details: Thermodynamic solubility assay (modified shake flask, LC-MS/MS)
- cond: Milli-Q water, 25 °C, pH 7, water, thermodynamic from solid, Solubility, pH=7, 25° C., 24 h; 3 separate determinations
Task for the reader: assign each of the following compounds its reported solubility at 24 h.

Query: Given the entry Nc1ccc(N)c(OCOCO)c1 [Compound N8, ((2,5-diaminophenoxy)methoxy)methanol] , report its measured solubility at 24 h.
Response: 78 to 100 mg/mL

Query: Similarly, COCOc1cc(N)ccc1N [Compound N2, 2-(methoxymethoxy)benzene-1,4-diamine] ?
Response: 78 to 100 mg/mL

Query: Similarly, Nc1ccc(N)c(OCCO)c1 [Compound N9, 2-(2,5-diaminophenoxy)ethan-1-ol] ?
Response: 65 to 72 mg/mL

Query: Similarly, COCCOc1cc(N)ccc1N [Compound N7, 2-(2-methoxyethoxy)benzene-1,4-diamine] ?
Response: 65 to 72 mg/mL

Query: Similarly, C=C(C)Oc1cc(N)ccc1N [Compound N12, 2-(prop-1-en-2-yloxy)benzene-1,4-diamine] ?
Response: 32 mg/mL

Query: Similarly, CNCCOc1cc(N)ccc1N [Compound N13] ?
Response: 38 mg/mL

Query: Similarly, Nc1ccc(N)c(OCC2CO2)c1 (stereo not drawn) [Compound N4] ?
Response: 65 to 72 mg/mL

Query: Similarly, CC(O)COc1cc(N)ccc1N (stereo not drawn) [Compound N10, 1-(2,5-diaminophenoxy)propan-2-ol] ?
Response: 78 to 100 mg/mL

Query: Similarly, CCOCOc1cc(N)ccc1N [Compound N3, 2-(ethoxymethoxy)benzene-1,4-diamine] ?
Response: 65 to 72 mg/mL
